src = ChEMBL document CHEMBL1201862

# System: SN12C
# method.description: NCI tumour cell line growth inhibition, 48 h
Activity calls are given as the source filed them. No stated cut-off is given here; in the data, active = GI50 up to about 1.1 µM and inactive = higher.
outcome.measure: GI50

> print(dat)
                                   molecule              result
1  O=C(N/N=C\c1cccc2ccccc12)Nc1ccc([N+](=O)[O-])cc1  18.5 µM (inactive)

Please report GI50 for the following molecule: C1CSCCCSCCCSCCCSCCCSC1 37.2 µM (inactive)

Please report GI50 for the following molecule: CCSc1c2ccccc2c(-c2nc(F)nc(F)n2)n1CCc1ccccc1 > 100 µM (inactive)

Please report GI50 for the following molecule: CC(C)=CC(=O)Cc1nc2cc(C)c(C)cc2[nH]c1=O > 100 µM (inactive)

Please report GI50 for the following molecule: CN1CCC(CN2c3ccccc3Sc3ccccc32)CC1 19.1 µM (inactive)
